Settings: basic group
Categories are defined by ranges of pKa, namely low value: < 4; medium value: ≥ 4 and < 8; high value: ≥ 8

Answered cases to consult:
Exercise: Bin this entry: CC(CN1CCCC(C)(C)C1)Nc1ccccn1 (configuration not stated)
Solution: high value

Exercise: Bin this entry: CSCCN
Solution: high value

Exercise: Bin this entry: Cc1nc2[nH]c(=O)[nH]c(=O)c2[nH]1
Solution: low value

Exercise: Bin this entry: c1ccc2cc3[nH]cnc3cc2c1
Solution: medium value

Exercise: Bin this entry: CCOc1ccc2[nH]c(CC)nc2c1
Solution: medium value

Exercise: Bin this entry: O=C([O-])c1ccc2sc(Cn3ccnc3)cc2c1
Solution: medium value

Further cases:
Exercise: Bin this entry: COc1cccc(Nc2ccccc2)c1
Solution: low value

Exercise: Bin this entry: CSc1ccc(N)cc1Cl
Solution: low value

Exercise: Bin this entry: Cc1nccc2c1[nH]c1cc(O)ccc12
Solution: medium value

Exercise: Bin this entry: CC(=N\O)/C(CN(C)C)=N\O
Solution: high value

Exercise: Bin this entry: COCCNc1cccc(OC)c1
Solution: low value

Exercise: Bin this entry: CC1=Nc2ccc([N+](=O)[O-])cc2[NH+]=C(C)C1
Solution: low value

Exercise: Bin this entry: O=[N+]([O-])c1cccc2nc3ccccc3c(NCCCO)c12
Solution: medium value

Exercise: Bin this entry: CCN1CCCC=C1C
Solution: high value

Exercise: Bin this entry: C(COCCc1nnn[nH]1)OCCc1nnn[nH]1
Solution: medium value

Exercise: Bin this entry: Cc1ccc2c(c1)ncn2[C@H]1OC[C@H](O)[C@@H](O)[C@@H]1O
Solution: medium value

Exercise: Bin this entry: CCCSC(=O)CCCc1c[nH]cn1
Solution: medium value

Exercise: Bin this entry: C[C@@H]1N[C@H](CCCCCCCC(=O)[O-])CC[C@@H]1O
Solution: high value

Exercise: Bin this entry: O=[N+]([O-])c1ccc([O-])c(CN2CCCCC2)c1
Solution: high value

Exercise: Bin this entry: Nc1cc2ccccc2cc1[N+](=O)[O-]
Solution: low value

Exercise: Bin this entry: COc1ccnnc1
Solution: low value

Exercise: Bin this entry: c1ccc2c(c1)[NH+]=C(c1ccncc1)[NH2+]2
Solution: low value

Exercise: Bin this entry: CCCn1nnnc1N
Solution: low value

Exercise: Bin this entry: C=CC(C)(C)N(C)C(C)(C)C
Solution: high value

This collection of values is drawn from the pKa sets of Baltruschat and Czodrowski (2020).
